Where do these numbers come from? They come from ChEMBL document CHEMBL3797106.

- PROTOCOL_SUMMARY: Oral bioavailability in cynomolgus monkey at 5 mg/kg
- Format: ADME, organism-based, Macaca fascicularis
- CONDITION_SUMMARY: in vivo
MEASURED_METRIC: bioavailability (%)

INSERT INTO results (compound_smiles, measured_metric, reading_unit, assay_result) VALUES
  ('O=C(O)C1CN(Cc2ccc(-c3noc(-c4onc(-c5ccccc5)c4C(F)(F)F)n3)cc2)C1', 'bioavailability', '%', 70);

###

- PROTOCOL_SUMMARY: Dissociation constant, pKa of the compound
- Assay type: physicochemical
MEASURED_METRIC: pKa

INSERT INTO assay_data (compound_smiles, measured_metric, assay_result) VALUES
  ('O=C(O)C1CN(Cc2ccc(-c3noc(-c4onc(-c5ccccc5)c4C(F)(F)F)n3)cc2)C1', 'pKa', 3.7);
